Experimental protocol: Distribution coefficient between octanol and buffer, log D of the compound in pH 7.4 buffer by CAMDIS assay
Assay type: physicochemical
If the reported logD equals or exceeds 3, assign rule met. If not, assign rule not met.

Smiles record: CCNc1cc(F)cc2c1[nH]c1ncc(-c3cncc(N4CCOCC4)c3)c(-n3ccc(C(F)(F)F)n3)c12
Class assignment: rule met
--
Smiles record: CCNc1cc(F)cc2c1[nH]c1ncc(-c3cncc(N4CCNCC4)c3)c(-n3ccc(C(F)(F)F)n3)c12
Class assignment: rule not met
--
Smiles record: CCNc1cc(F)cc2c1[nH]c1ncc(-c3cncc(C(=N)NC)c3)c(-n3ccc(C(F)(F)F)n3)c12
Class assignment: rule not met
--
Smiles record: CCNc1cc(F)cc2c1[nH]c1ncc(-c3cncc(CC(N)=O)c3)c(-n3ccc(C(F)(F)F)n3)c12
Class assignment: rule met
--
Smiles record: CCNc1cc(F)cc2c1[nH]c1ncc(-c3cncc(CC(=O)O)c3)c(-n3ccc(C(F)(F)F)n3)c12
Class assignment: rule not met
--
Smiles record: CCNc1cc(F)cc2c1[nH]c1ncc(-c3cnc4c(c3)c(=O)c(C(=O)O)cn4C)c(-n3ccc(C(F)(F)F)n3)c12
Class assignment: rule not met
--
Smiles record: CCNc1cc(F)cc2c1[nH]c1ncc(-c3cncc(N)c3)c(-n3ccc(C(F)(F)F)n3)c12
Class assignment: rule met
--
Smiles record: CCNc1cc(F)cc2c1[nH]c1ncc(-c3cncc(C(N)=O)c3)c(-n3ccc(C(F)(F)F)n3)c12
Class assignment: rule met

====

As shown below, each of these compounds has a reported CLH value.
Experimental protocol: Intrinsic clearance in mouse hepatocytes by LC/MS-MS analysis
Assay type: ADME, cell-based, Hepatocyte
Experimental endpoint: CLH (µg/mL)

Smiles record: CCNc1cc(F)cc2c1[nH]c1ncc(-c3cnc(OC)nc3)c(-n3cc(CN)c(C(F)(F)F)n3)c12
Observed measurement: 45.3

Smiles record: CCNc1cc(F)cc2c1[nH]c1ncc(-c3cncc(C#N)c3)c(-n3cc(CN)c(C(F)(F)F)n3)c12
Observed measurement: 48.6

Smiles record: CCNc1cc(F)cc2c1[nH]c1ncc(-c3cnc(OC)nc3)c(-n3ncc4c3CNC4)c12
Observed measurement: 53.9

Smiles record: CCNc1cc(F)cc2c1[nH]c1ncc(-c3cncc(C#N)c3)c(-n3ncc4c3CNC4)c12
Observed measurement: 74.6

====

Tested on: Escherichia coli
Experimental protocol: Antibacterial activity against Escherichia coli ATCC BAA-2340 assessed as reduction in microbial growth preincubated for 20 to 24 hrs followed by subculture in absence of compound and measured on day 4 CLSI based broth microdilution susceptibility method
Type: functional
Cond: time hrs 20-24
Threshold check on MIC: strictly below 2 µg/mL is true; on or above 2 µg/mL is false.

Smiles record: CCNc1cc(F)cc2c1[nH]c1ncc(-c3cncc(CO)c3)c(-n3ccc(C(F)(F)F)n3)c12
Class assignment: true
--
Smiles record: CCNc1cc(F)cc2c1[nH]c1ncc(-c3cncc(C#N)c3)c(-n3ccc(C(F)(F)F)n3)c12
Class assignment: false
--
Smiles record: CCNc1cc(F)cc2c1[nH]c1ncc(-c3cncc(C(N)=O)c3)c(-n3ccc(C(F)(F)F)n3)c12
Class assignment: true
--
Smiles record: CCNc1cc(F)cc2c1[nH]c1ncc(-c3cnc4ccnn4c3)c(-n3ccc(C(F)(F)F)n3)c12
Class assignment: true
--
Smiles record: CCNc1cc(F)cc2c1[nH]c1ncc(-c3cncc(N)c3)c(-n3ccc(C(F)(F)F)n3)c12
Class assignment: false
--
Smiles record: CCNc1cc(F)cc2c1[nH]c1ncc(-c3cnc(OC)nc3)c(-n3cc(CN)c(C(F)(F)F)n3)c12
Class assignment: false
--
Smiles record: CCNc1cc(F)cc2c1[nH]c1ncc(-c3cncnc3)c(-n3ccc(C(F)(F)F)n3)c12
Class assignment: true
--
Smiles record: CCNc1cc(F)cc2c1[nH]c1ncc(-c3cnc(OC)nc3)c(-n3ncc4c3CNC4)c12
Class assignment: false

====

System: Escherichia coli
Experimental protocol: microbe, parasite or virus in culture
Cond: ATCC 29213
Description: Antibacterial activity against Escherichia coli ATCC 29213 assessed as reduction in microbial growth preincubated for 20 to 24 hrs followed by subculture in absence of compound and measured on day 4 CLSI based broth microdilution susceptibility method
As shown below, each of these compounds has a reported MIC value.

Smiles record: CCNc1cc(F)cc2c1[nH]c1ncc(-c3cnc(OC4CCNCC4)nc3)c(-n3ccc(C(F)(F)F)n3)c12
Tested target: Escherichia coli
Value operator: =
MIC [µg/mL]: 0.63
--
Smiles record: CCNc1cc(F)cc2c1[nH]c1ncc(-c3cncc(C(=N)NC)c3)c(-n3ccc(C(F)(F)F)n3)c12
Tested target: Escherichia coli
Value operator: =
MIC [µg/mL]: 0.5
--
Smiles record: CCNc1cc(F)cc2c1[nH]c1ncc(-c3cncc(C#N)c3)c(-n3cnc(C(F)(F)F)c3)c12
Tested target: Escherichia coli
Value operator: =
MIC [µg/mL]: 0.25
--
Smiles record: CCNc1cc(F)cc2c1[nH]c1ncc(-c3cnc(CC(=O)O)nc3)c(-n3ccc(C(F)(F)F)n3)c12
Tested target: Escherichia coli
Value operator: <
MIC [µg/mL]: 0.016
--
Smiles record: CCNc1cc(F)cc2c1[nH]c1ncc(-c3cnc(NC4CCNCC4)nc3)c(-n3ccc(C(F)(F)F)n3)c12
Tested target: Escherichia coli
Value operator: =
MIC [µg/mL]: 0.63
--
Smiles record: CCNc1cc(F)cc2c1[nH]c1ncc(-c3cnc(OC4CNC4)nc3)c(-n3ccc(C(F)(F)F)n3)c12
Tested target: Escherichia coli
Value operator: =
MIC [µg/mL]: 0.63
--
Smiles record: CCNc1cc(F)cc2c1[nH]c1ncc(-c3cnc(C(N)=O)nc3)c(-n3ccc(C(F)(F)F)n3)c12
Tested target: Escherichia coli
Value operator: <
MIC [µg/mL]: 0.25
--
Smiles record: CCNc1cc(F)cc2c1[nH]c1ncc(-c3cnc(NC4CNC4)nc3)c(-n3ccc(C(F)(F)F)n3)c12
Tested target: Escherichia coli
Value operator: <
MIC [µg/mL]: 0.25
--
Smiles record: CNc1cc(F)cc2c1[nH]c1ncc(-c3cnc(C4(C(=O)O)CC4)nc3)c(-n3ccc(C(F)(F)F)n3)c12
Tested target: Escherichia coli
Value operator: <
MIC [µg/mL]: 0.016
--
Smiles record: CCNc1cc(F)cc2c1[nH]c1ncc(-c3cncc(N4CCNCC4)c3)c(-n3ccc(C(F)(F)F)n3)c12
Tested target: Escherichia coli
Value operator: =
MIC [µg/mL]: 0.5
--
Smiles record: CCNc1cc(F)cc2c1[nH]c1ncc(-c3cncc(C#N)c3)c(-n3ccc(C(F)F)n3)c12
Tested target: Escherichia coli
Value operator: <
MIC [µg/mL]: 0.25
--
Smiles record: CCNc1cc(F)cc2c1[nH]c1ncc(-c3cncc(C#N)c3)c(-c3cccc(C(F)(F)F)c3)c12
Tested target: Escherichia coli
Value operator: =
MIC [µg/mL]: 0.063
--
Smiles record: CCNc1cc(F)cc2c1[nH]c1ncc(-c3cncc(C#N)c3)c(-n3ccc(C(C)(C)C)n3)c12
Tested target: Escherichia coli
Value operator: <
MIC [µg/mL]: 0.25
--
Smiles record: CCNc1cc(F)cc2c1[nH]c1ncc(-c3cnc(OCC)nc3)c(-n3ccc(C(F)(F)F)n3)c12
Tested target: Escherichia coli
Value operator: <
MIC [µg/mL]: 0.016
--
Smiles record: CCNc1cc(F)cc2c1[nH]c1ncc(-c3cncc(C#N)c3)c(-n3ccc(CC)n3)c12
Tested target: Escherichia coli
Value operator: <
MIC [µg/mL]: 0.25
--
Smiles record: CCNc1cc(F)cc2c1[nH]c1ncc(-c3cncc(C(=O)NOC)c3)c(-n3ccc(C(F)(F)F)n3)c12
Tested target: Escherichia coli
Value operator: <
MIC [µg/mL]: 0.125

====

Test system: Escherichia coli
Experimental protocol: microbe, parasite or virus in culture
Cond: ATCC 25922
Description: Antibacterial activity against Escherichia coli ATCC 25922 assessed as reduction in microbial growth preincubated for 20 to 24 hrs followed by subculture in absence of compound and measured on day 4 CLSI based broth microdilution susceptibility method
As shown below, each of these molecules has a reported MIC value.
Experimental endpoint: MIC (µg/mL)

Smiles record: CCNc1cc(F)cc2c1[nH]c1ncc(-c3cnc(NC)nc3)c(-n3ccc(C(F)(F)F)n3)c12
Experimental endpoint: MIC
Value operator: =
Observed measurement: 0.25
--
Smiles record: CCNc1cc(F)cc2c1[nH]c1ncc(-c3cncc(C#N)c3)c(-n3cnc(C(F)(F)F)c3)c12
Experimental endpoint: MIC
Value operator: >
Observed measurement: 16
--
Smiles record: CCNc1cc(F)cc2c1[nH]c1ncc(-c3cncc(N)c3)c(-n3ccc(C(F)(F)F)n3)c12
Experimental endpoint: MIC
Value operator: =
Observed measurement: 0.25
--
Smiles record: CCNc1cc(F)cc2c1[nH]c1ncc(-c3cncc(C#N)c3)c(-n3ccc(CN)n3)c12
Experimental endpoint: MIC
Value operator: =
Observed measurement: 16
--
Smiles record: CCNc1cc(F)cc2c1[nH]c1ncc(-c3cnc(CC(=O)O)nc3)c(-n3ccc(C(F)(F)F)n3)c12
Experimental endpoint: MIC
Value operator: =
Observed measurement: 1
--
Smiles record: CCNc1cc(F)cc2c1[nH]c1ncc(-c3cncc(C#N)c3)c(-n3cc(C(N)=O)c(C(F)(F)F)n3)c12
Experimental endpoint: MIC
Value operator: >
Observed measurement: 16
--
Smiles record: CCNc1cc(F)cc2c1[nH]c1ncc(-c3cncc(Cc4nnn[nH]4)c3)c(-n3ccc(C(F)(F)F)n3)c12
Experimental endpoint: MIC
Value operator: >
Observed measurement: 11.4
--
Smiles record: CCNc1cc(F)cc2c1[nH]c1ncc(-c3cncc(C#N)c3)c(-n3cc(C(=O)OCC)c(C(F)(F)F)n3)c12
Experimental endpoint: MIC
Value operator: =
Observed measurement: 2
--
Smiles record: CCNc1cc(F)cc2c1[nH]c1ncc(-c3cncc(C#N)c3)c(-n3ccc(N)n3)c12
Experimental endpoint: MIC
Value operator: =
Observed measurement: 8
--
Smiles record: CCNc1cc(F)cc2c1[nH]c1ncc(-c3cncc(C#N)c3)c(-n3nc(C(F)(F)F)cc3C)c12
Experimental endpoint: MIC
Value operator: =
Observed measurement: 8
--
Smiles record: CCNc1cc(F)cc2c1[nH]c1ncc(-c3cncc(Cc4ncc[nH]4)c3)c(-n3ccc(C(F)(F)F)n3)c12
Experimental endpoint: MIC
Value operator: =
Observed measurement: 2.83
--
Smiles record: CCNc1cc(F)cc2c1[nH]c1ncc(-c3cnc(NC4CCNCC4)nc3)c(-n3ccc(C(F)(F)F)n3)c12
Experimental endpoint: MIC
Value operator: =
Observed measurement: 1
--
Smiles record: CCNc1cc(F)cc2c1[nH]c1ncc(-c3cncc(C#N)c3)c(-n3ccc(C(C)C)n3)c12
Experimental endpoint: MIC
Value operator: >
Observed measurement: 16
--
Smiles record: CCNc1cc(F)cc2c1[nH]c1ncc(-c3cncc(C(N)=O)c3)c(-n3ccc(C(F)(F)F)n3)c12
Experimental endpoint: MIC
Value operator: =
Observed measurement: 0.5
--
Smiles record: CCNc1cc(F)cc2c1[nH]c1ncc(-c3cnc(N)nc3)c(-n3ccc(C(F)(F)F)n3)c12
Experimental endpoint: MIC
Value operator: =
Observed measurement: 1
--
Smiles record: CNc1cc(F)cc2c1[nH]c1ncc(-c3cnc(C4(C(=O)O)CC4)nc3)c(-n3ccc(C(F)(F)F)n3)c12
Experimental endpoint: MIC
Value operator: =
Observed measurement: 0.75
--
Smiles record: CCNc1cc(F)cc2c1[nH]c1ncc(-c3cnc(C(N)=O)nc3)c(-n3ccc(C(F)(F)F)n3)c12
Experimental endpoint: MIC
Value operator: <
Observed measurement: 0.25
--
Smiles record: CCNc1cc(F)cc2c1[nH]c1ncc(-c3cnc(OC4CNC4)nc3)c(-n3ccc(C(F)(F)F)n3)c12
Experimental endpoint: MIC
Value operator: =
Observed measurement: 1
--
Smiles record: CCNc1cc(F)cc2c1[nH]c1ncc(-c3cncc(C#N)c3)c(-n3ccc(CC)n3)c12
Experimental endpoint: MIC
Value operator: =
Observed measurement: 1
--
Smiles record: CCNc1cc(F)cc2c1[nH]c1ncc(-c3cncc(C#N)c3)c(-c3cccc(C(F)(F)F)c3)c12
Experimental endpoint: MIC
Value operator: >
Observed measurement: 16
--
Smiles record: CCNc1cc(F)cc2c1[nH]c1ncc(-c3cncc(C#N)c3)c(-n3ccc(C(C)(C)C)n3)c12
Experimental endpoint: MIC
Value operator: >
Observed measurement: 16
--
Smiles record: CCNc1cc(F)cc2c1[nH]c1ncc(-c3cnc(C)nc3)c(-n3ccc(C(F)(F)F)n3)c12
Experimental endpoint: MIC
Value operator: =
Observed measurement: 0.5
--
Smiles record: CCNc1cc(F)cc2c1[nH]c1ncc(-c3cncc(C#N)c3)c(-n3nc(C(F)F)c4c3CNC4)c12
Experimental endpoint: MIC
Value operator: =
Observed measurement: 2
--
Smiles record: CCNc1cc(F)cc2c1[nH]c1ncc(-c3cncc(Cc4n[nH]c(=O)o4)c3)c(-n3ccc(C(F)(F)F)n3)c12
Experimental endpoint: MIC
Value operator: =
Observed measurement: 0.73
--
Smiles record: CCNc1cc(F)cc2c1[nH]c1ncc(-c3cncc(CC(=O)O)c3)c(-n3ccc(C(F)(F)F)n3)c12
Experimental endpoint: MIC
Value operator: >
Observed measurement: 8
--
Smiles record: CCNc1cc(F)cc2c1[nH]c1ncc(-c3cncc(N4CCNCC4)c3)c(-n3ccc(C(F)(F)F)n3)c12
Experimental endpoint: MIC
Value operator: =
Observed measurement: 8
--
Smiles record: CCNc1cc(F)cc2c1[nH]c1ncc(-c3cncc(C(=O)NO)c3)c(-n3ccc(C(F)(F)F)n3)c12
Experimental endpoint: MIC
Value operator: =
Observed measurement: 2
--
Smiles record: CCNc1cc(F)cc2c1[nH]c1ncc(-c3cnc(C(=O)O)nc3)c(-n3ccc(C(F)(F)F)n3)c12
Experimental endpoint: MIC
Value operator: =
Observed measurement: 16
--
Smiles record: CCNc1cc(F)cc2c1[nH]c1ncc(-c3cnc(C(C)(C)O)nc3)c(-n3ccc(C(F)(F)F)n3)c12
Experimental endpoint: MIC
Value operator: =
Observed measurement: 1
--
Smiles record: CCNc1cc(F)cc2c1[nH]c1ncc(-c3cncc(C(=N)NC)c3)c(-n3ccc(C(F)(F)F)n3)c12
Experimental endpoint: MIC
Value operator: =
Observed measurement: 8
--
Smiles record: CCNc1cc(F)cc2c1[nH]c1ncc(-c3cnc(N4CCNCC4)nc3)c(-n3ccc(C(F)(F)F)n3)c12
Experimental endpoint: MIC
Value operator: =
Observed measurement: 1
--
Smiles record: CCNc1cc(F)cc2c1[nH]c1ncc(-c3cnc(OC)nc3)c(-n3cc(CN)c(C(F)(F)F)n3)c12
Experimental endpoint: MIC
Value operator: =
Observed measurement: 0.31
--
Smiles record: CCNc1cc(F)cc2c1[nH]c1ncc(-c3cnc(OC)nc3)c(-n3ccc(C(F)(F)F)n3)c12
Experimental endpoint: MIC
Value operator: =
Observed measurement: 0.5
